- assay.system: GABA transporter 4 (Mus musculus) (UniProt P31650)
- Sequence (P31650 whole entry): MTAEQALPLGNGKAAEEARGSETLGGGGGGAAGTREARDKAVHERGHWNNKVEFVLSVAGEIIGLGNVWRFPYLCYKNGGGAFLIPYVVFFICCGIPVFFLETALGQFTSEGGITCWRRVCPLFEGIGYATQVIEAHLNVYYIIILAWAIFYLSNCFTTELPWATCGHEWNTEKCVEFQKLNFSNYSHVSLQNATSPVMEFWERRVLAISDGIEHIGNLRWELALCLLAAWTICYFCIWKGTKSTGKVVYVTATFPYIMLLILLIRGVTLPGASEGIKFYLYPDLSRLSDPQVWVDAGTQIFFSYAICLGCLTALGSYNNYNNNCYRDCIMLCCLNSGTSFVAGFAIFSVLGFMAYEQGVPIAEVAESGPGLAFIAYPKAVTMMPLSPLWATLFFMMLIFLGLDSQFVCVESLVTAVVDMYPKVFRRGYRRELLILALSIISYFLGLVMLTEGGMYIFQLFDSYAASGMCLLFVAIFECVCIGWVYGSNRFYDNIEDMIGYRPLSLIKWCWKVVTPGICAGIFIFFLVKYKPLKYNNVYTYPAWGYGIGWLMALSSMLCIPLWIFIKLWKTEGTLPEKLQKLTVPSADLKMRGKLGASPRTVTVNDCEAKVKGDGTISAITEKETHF
- test.protocol: Inhibition of mouse GAT4 expressed in HEK cells assessed as reduction in [3H]GABA uptake by measuring remaining [3H]GABA uptake levels at 1 uM preincubated for 25 mins followed by [3H]GABA addition and measured after 4 mins by microbeta liquid scintillation counting analysis
- Type: cell-based
reported.endpoint: Activity (%)

O=C(O)[C@H]1CNC[C@@H](N/N=C/c2ccccc2-c2ccc(-c3ccccc3)cc2)C1 (racemic) ... 72
O=C(O)[C@H]1CNC[C@@H](N/N=C/c2ccc(-c3ccn[nH]3)o2)C1 (racemic) ... 96
O=C(O)[C@H]1CNC[C@@H](N/N=C/c2ccc(-c3ccc(Br)cc3)o2)C1 (racemic) ... 93
O=C(O)[C@H]1CNC[C@@H](N/N=C/c2ccc(-c3ccc(F)c(C(F)(F)F)c3)o2)C1 (racemic) ... 88
O=C(O)[C@H]1CNC[C@@H](N/N=C/c2ccccc2-c2ccc(C(F)(F)F)cc2C(F)(F)F)C1 (racemic) ... 83
Cc1ccccc1-c1ccccc1/C=N/N[C@@H]1CNC[C@H](C(=O)O)C1 (racemic) ... 90
O=C(O)[C@H]1CNC[C@@H](N/N=C/c2cc(F)ccc2-c2ccc(Cl)cc2)C1 (racemic) ... 69
O=C(O)[C@H]1CNC[C@@H](N/N=C/c2ccc(-c3ccc(Cl)cc3F)o2)C1 (racemic) ... 85
O=C(O)[C@H]1CNC[C@@H](N/N=C/c2ccccc2-c2ccccc2-c2ccccc2)C1 (racemic) ... 92
O=C(O)[C@H]1CNC[C@@H](N/N=C/c2ccccc2-c2cccc(-c3ccccc3)c2)C1 (racemic) ... 89
O=C(O)[C@H]1CNC[C@@H](N/N=C/c2ccccc2-c2ccc(F)cc2Cl)C1 (racemic) ... 96
O=C(O)[C@H]1CNC[C@@H](N/N=C/c2ccc(-c3cc(C(F)(F)F)cc(C(F)(F)F)c3)o2)C1 (racemic) ... 86
Cn1cnnc1Sc1ccc(/C=N/N[C@@H]2CNC[C@H](C(=O)O)C2)o1 (racemic) ... 92
O=C(O)[C@H]1CNC[C@@H](N/N=C/c2ccc(-c3cccc4ccccc34)o2)C1 (racemic) ... 102
O=C(O)[C@H]1CNC[C@@H](N/N=C/c2ccc(-c3cccc(C(F)(F)F)c3)o2)C1 (racemic) ... 95
Cc1ccc(-c2ccccc2/C=N/N[C@@H]2CNC[C@H](C(=O)O)C2)c(C)c1 (racemic) ... 84
